# TESTED_TARGET: VHL (VBC complex: pVHL54-213, eloB1-104, eloC17-112) (Homo sapiens, UniProt P40337)
# Construct: equimolar complex of pVHL54-213, eloB1-104 and; made in house; host or cells: E. coli
# PROCEDURE_SUMMARY: Surface plasmon resonance (SPR) steady-state binding to immobilised biotinylated AviVBC
# EXPERIMENTAL_CONTEXT: SPR fit with very large error or RMAX above theoretical; unspecific / promiscuous binding suspected; read-out: KD (Biacore T200 fit, judged unreliable)

{"COMPOUND_SMILES": "Cc1ncsc1-c1ccc(CNC(=O)[C@@H]2C[C@@H](O)CN2)c(C(F)(F)F)c1", "Kd": "2530 µM"}
{"COMPOUND_SMILES": "CC(=O)N1C[C@H](O)C[C@H]1C(=O)NCc1ccc(-c2scnc2C)cc1C(F)(F)F", "Kd": "223 µM"}

* * *

# TESTED_TARGET: VHL (VBC complex) (Homo sapiens, UniProt P40337)
# Construct: equimolar complex of pVHL54-213, eloB1-104 and; made in house; host or cells: E. coli
# Sequence (P40337 54-213): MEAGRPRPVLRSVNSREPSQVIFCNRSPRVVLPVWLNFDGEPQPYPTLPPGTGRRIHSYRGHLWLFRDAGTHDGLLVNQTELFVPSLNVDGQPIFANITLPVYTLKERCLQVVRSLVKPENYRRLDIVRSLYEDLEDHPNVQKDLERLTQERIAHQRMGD
# Sequence (Q15370 1-104 partner limits assumed): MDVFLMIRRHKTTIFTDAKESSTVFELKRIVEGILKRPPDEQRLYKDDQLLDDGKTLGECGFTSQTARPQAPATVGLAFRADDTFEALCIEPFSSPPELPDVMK
# Sequence (Q15369 17-112 partner limits assumed): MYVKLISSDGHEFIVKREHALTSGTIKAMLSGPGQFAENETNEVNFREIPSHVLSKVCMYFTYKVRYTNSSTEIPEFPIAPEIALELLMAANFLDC
# PROCEDURE_SUMMARY: 19F CPMG NMR transverse relaxation rate (R2) and R2 contrast (C2) of spy molecule with and without protein
# Type: binding
# EXPERIMENTAL_CONTEXT: Spy molecule 100 μM, no protein
R2 reference

{"COMPOUND": "Cc1ncsc1-c1ccc(CNC(=O)[C@@H]2C[C@@H](O)CN2C(=O)CC(C)(C)C)cc1C(F)(F)F [Compound 7]", "TESTED_TARGET": "VHL (VBC complex) (Homo sapiens, UniProt P40337)", "UNIT_DESCRIPTOR": "s⁻¹", "R2": 1.368}
{"COMPOUND": "O=C(NCc1ccc(Br)cc1)C1CC(O)CN1C(=O)C(F)(F)F (stereo not shown) [Compound 17]", "TESTED_TARGET": "VHL (VBC complex) (Homo sapiens, UniProt P40337)", "UNIT_DESCRIPTOR": "s⁻¹", "R2": 1.213}
{"COMPOUND": "CC(C)(C)C(NC(=O)C(F)(F)F)C(=O)N1CC(O)CC1C(=O)NCc1ccc(Br)cc1 (stereo not shown) [Compound 21]", "TESTED_TARGET": "VHL (VBC complex) (Homo sapiens, UniProt P40337)", "UNIT_DESCRIPTOR": "s⁻¹", "R2": 3.959}
{"COMPOUND": "CC(=O)N1C[C@H](O)C[C@H]1C(=O)NCc1ccc(-c2scnc2C)cc1C(F)(F)F [Compound 14]", "TESTED_TARGET": "VHL (VBC complex) (Homo sapiens, UniProt P40337)", "UNIT_DESCRIPTOR": "s⁻¹", "R2": 1.579}
{"COMPOUND": "Cc1ncsc1-c1ccc(CNC(=O)[C@@H]2C[C@@H](O)CN2)c(C(F)(F)F)c1 [Compound 13]", "TESTED_TARGET": "VHL (VBC complex) (Homo sapiens, UniProt P40337)", "UNIT_DESCRIPTOR": "s⁻¹", "R2": 1.558}
{"COMPOUND": "Cc1ncsc1-c1ccc(CNC(=O)[C@@H]2C[C@@H](O)CN2)cc1C(F)(F)F [Compound 5]", "TESTED_TARGET": "VHL (VBC complex) (Homo sapiens, UniProt P40337)", "UNIT_DESCRIPTOR": "s⁻¹", "R2": 0.915}
{"COMPOUND": "CC(=O)N1C[C@H](O)C[C@H]1C(=O)NCc1ccc(Br)cc1C(F)(F)F [Compound 10]", "TESTED_TARGET": "VHL (VBC complex) (Homo sapiens, UniProt P40337)", "UNIT_DESCRIPTOR": "s⁻¹", "R2": 1.249}
